Reference source for all entries: PubChem BioAssay

- assay method text: basal S. cerevisiae growth modulation, no modifier, primary screen, OD600, strain BY4716, 24 h, basal condition (AID 1173)
- experimental conditions: OD600, 24 h, higher = more signal, called active from +8 up or from −8 down
readout name: z-score
Answer with the value's number alone.

See these solved cases before continuing.
- structure string: "CN1C(=O)[C@]2(CCC(=O)OC(C)(C)C)N=C(c3ccc(OCCCO)cc3)O[C@@H]2c2ccccc21"
  measured number: 0.997
- structure string: "COc1ccc([Si](C)(C)[C@H]2[C@H](CCO)O[C@@]3(C(=O)N(Cc4ccccc4)c4ccc(N(C=O)c5ccccc5)cc43)[C@@H]2C)cc1"
  measured number: 1.53

Recorded z-score for COCCOC(=O)N1C(=O)[C@@]2(c3cc(C#CCC(C(=O)OC)C(=O)OC)ccc31)[C@H](c1ccc(OCCO)cc1)N1[C@H](c3ccccc3)[C@H](c3ccccc3)OC(=O)[C@H]1[C@@H]2C(=O)N1CCCCCCC1 , please?
1.45

How about CCOC(=O)C1=CC[C@@H](c2ccccc2)N(S(=O)(=O)C[Si](C)(C)C)[C@H]1c1ccccc1 ?
0.945

How about [N-]=[N+]=NCc1ccccc1C[C@]1(C(=O)N2CCCCC2)N=C(c2ccc(OCCCO)cc2)O[C@H]1c1ccccc1 ?
1.71

How about CCOC(=O)C[C@H]1[C@H](OC(=O)c2ccc(-c3ccccc3)cc2)[C@@H](NC(=O)CC(C)C)c2cc(OCCCO)ccc2N1C(=O)Cc1ccc(OC)cc1 ?
0.605

How about C=C(/C(=C/C[C@H](OC(=O)c1ccncc1)c1ccccc1OCCO)c1cc(C(=O)OC)ccc1OC)C(C)C ?
0.0223

====

- assay method text: S. cerevisiae growth modulation with rapamycin, primary screen, strain BY4716, OD600, 96 h (AID 1091); also: test concentration not given here
- experimental conditions: called active from +8 up or from −8 down
The source made the active and inactive calls.
In this exercise, the only acceptable responses are active, inactive

- compound: "COC(=O)c1c(CC[C@@H](CO)NC(=O)N[C@@H](Cc2ccccc2)Cn2cc(-c3cncn3C)nn2)oc(C(C)=O)c1C(=O)OC"
  class name: "inactive"
- compound: "COc1ccc(CC[C@H](O)c2cccc(OCC(=O)OC(C)(C)C)c2)cc1"
  class name: "active"
- compound: "CC(C)CNC(=O)[C@@]1(C)c2ccccc2C(=O)N(Cc2cc(F)cc(C(F)(F)F)c2)[C@H]1c1ccc(CO)cc1"
  class name: "inactive"

State the result this test recorded for COC(=O)C(CC#Cc1ccc2c(c1)[C@]1(C(=O)N2)[C@H](c2ccc(O)cc2)N2[C@H](c3ccccc3)[C@H](c3ccccc3)OC(=O)[C@H]2[C@@H]1C(=O)N1CCc2cc(OC)c(OC)cc2C1)C(=O)OC .
inactive

How about C=CC[C@]1(C(=O)N(C)C)COC(c2ccc(OCCCO)cc2)=N1 ?
inactive

====

- tested on: Albumin (Bos taurus)
- assay method text: bovine serum albumin binders on microarray, profiling panel, artefact control for SMM control protein annotation, biochemical, small-molecule microarray, Alexa647 label, 635/667 nm fluorescence (AID 1118);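 also: score merges 667 nm emission intensity and signal-to-noise per printed compound spot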
- experimental conditions: BSA-A647 binding, fluorescence 635 nm, higher = more signal
Cut-off -0.2 on composite z-score, inclusive. At or above means Satisfied; below means Not satisfied.

Worked cases, answers included:
- compound: "C[C@H]1NC(=O)C([C@@H](C)OCc2ccccc2)NC(=O)[C@@]23C(=O)N[C@@H](Cc4ccccc4)C2[C@H](C)[C@@]2(C)O[C@H]2C3/C=C/C/C=C\\CNC1=O (some centres undefined)"
  class name: "Not satisfied"
- compound: "CCCCC=C[C@@H](NC(=O)c1ccc(C(F)(F)F)cc1)c1ccccc1"
  class name: "Not satisfied"
- compound: "[N-]=[N+]=NCc1ccccc1C[C@]1(C(=O)N2CCCCC2)N=C(c2ccc(OCCCO)cc2)O[C@H]1c1ccccc1"
  class name: "Satisfied"

Check if composite z-score >= -0.2 (inclusive). Item: C=CCNC(=O)[C@@H]1[C@H]2C(=O)O[C@H](c3ccccc3)[C@H](c3ccccc3)N2[C@H](c2ccc(O)cc2)[C@@]12C(=O)Nc1ccc(C#CC3(O)CCCCCC3)cc12
Not satisfied

How about CCCC[C@@H]1C[C@H]1[C@@H](NC(=O)c1ccc(C(F)(F)F)cc1)c1ccc(C(=O)OC)cc1 ?
Satisfied

How about CC#CCO[Si](C#CCCCCCC)(C(C)C)C(C)C ?
Not satisfied

How about COCCOC(=O)N1C(=O)[C@@]2(c3ccccc31)[C@H](c1ccc(OCCO)cc1)N1[C@H](c3ccccc3)[C@H](c3ccccc3)OC(=O)[C@H]1[C@@H]2C(=O)N1CCN(c2ncccn2)CC1 ?
Satisfied

How about COCCOC(=O)N1C(=O)[C@@]2(c3cc(C#CCNC(N)=O)ccc31)[C@H](C(=O)NC[C@H](O)c1ccccc1)[C@H]1C(=O)O[C@H](c3ccccc3)[C@H](c3ccccc3)N1[C@@H]2c1ccc(OCCO)cc1 ?
Satisfied

How about CCOC(=O)C[C@H]1[C@H](OC(=O)c2ccc(-c3ccccc3)cc2)[C@@H](NC(=O)c2ccc3ccccc3c2)c2cc(OCCCO)ccc2N1C(=O)c1ccccc1 ?
Satisfied

How about COc1ccc(CCNC(=O)[C@@]2(Sc3ccc(C)cc3)CC(=O)N(Cc3cc(C(F)(F)F)cc(C(F)(F)F)c3)[C@@H]2c2ccc(CO)cc2)cc1 ?
Not satisfied

How about C=CC[C@@]1(C(=O)N(C)C)N=C(c2ccc(OCCCO)cc2)O[C@@H]1c1ccccc1 ?
Satisfied

How about CCCC[C@@H]1C[C@H]1[C@@H](NC(=O)Cc1ccccc1)c1ccc(Cl)cc1 ?
Satisfied

How about CN(C)CCCCNC(=O)[C@H]1C[C@H]2C(=O)N[C@@H](Cc3ccccc3)C(=O)N2[C@H]1c1cccc(OCCO)c1 ?
Not satisfied

How about CCOC(=O)C[C@H]1[C@H](OC(=O)c2cc3ccccc3oc2=O)[C@@H](NC(=O)C2CCCCC2)c2cc(OCCCO)ccc2N1C(=O)Cc1ccc(OC)cc1 ?
Satisfied

====

- tested on: Pro-neuregulin-1, membrane-bound isoform (Homo sapiens)
- assay method text: NRG1 binders on small-molecule microarrays, primary screen, psychiatric disease protein project, biochemical, small-molecule microarray, fluorescence 635/667 (AID 1075);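 also: score combines 667 nm spot fluorescence with signal to noise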
- experimental conditions: NRG1 binding, 635 nm fluorescence, higher = more signal
Cut-off 0.9 on composite z-score, inclusive. At or above means t; below means f.

Worked cases, answers included:
- molecule: "CN1C=C(C(=O)OCCS(C)(=O)=O)C(C(=O)OCCS(C)(=O)=O)=CC(CCCO)=CC1c1ccc(CN2CCCC2)cc1 (centres undefined)"
  class name: "t"
- molecule: "COc1cc2c(cc1O)C(c1ccc(CN3CCCC3)cc1)N(Cc1ccc([N+](=O)[O-])o1)CC2 (centres undefined)"
  class name: "t"
- molecule: "CC(C)=CCN(C(=O)C#Cc1ccccc1)[C@H](CO)c1ccccc1"
  class name: "f"
- molecule: "NC(=O)NCC#Cc1ccc2c(c1)[C@]1(C(=O)N2)[C@H](C(=O)Nc2nc3ccccc3s2)[C@H]2C(=O)O[C@H](c3ccccc3)[C@H](c3ccccc3)N2[C@@H]1c1ccc(OCCO)cc1"
  class name: "f"
- molecule: "COCCOC(=O)N1C(=O)[C@@]2(c3cc(C#CC4(O)CCCCCC4)ccc31)[C@H](C(=O)N1CCc3cc(OC)c(OC)cc3C1)[C@H]1C(=O)O[C@H](c3ccccc3)[C@H](c3ccccc3)N1[C@@H]2c1ccc(O)cc1"
  class name: "f"

Check if composite z-score >= 0.9 (inclusive). Item: C=C(CC1([C@@H](NP(=O)(c2ccccc2)c2ccccc2)[C@H]2C[C@@H]2CCN(C(=O)OCC)S(=O)(=O)c2ccc(C)cc2)CC1)c1ccccc1
t

How about CCOC(=O)C[C@H]1[C@H](OC(=O)c2ccc(-c3ccccc3)cc2)[C@@H](NC(=O)CC(C)C)c2cc(OCCCO)ccc2N1C(=O)Cc1ccc(OC)cc1 ?
f

How about COc1ccc(C#Cc2ccc3c(c2)[C@]2(C(=O)N3)[C@H](c3ccc(OCCO)cc3)N3[C@H](c4ccccc4)[C@H](c4ccccc4)OC(=O)[C@H]3[C@@H]2C(=O)O)cc1 ?
f

How about C=CCC(OC(C)=O)[C@@H]1[C@@H](N(Cc2cc3ccccc3o2)C(=O)c2cccc3ccccc23)c2cc(OCCCO)ccc2N1C(=O)c1ccc2ccccc2c1 (some centres undefined) ?
f

How about CCCCNC(=O)c1ccc(C#C[Si](C)(C)C)c(OC(C)=O)c1 ?
f

How about COc1ccc([Si](C)(C)[C@H]2[C@H](CCn3cc([C@H](O)c4ccccc4)nn3)O[C@@]3(C(=O)N(c4ccccc4)c4ccccc43)[C@@H]2C)cc1 ?
f

How about CCCC=C(CCC)[C@@H](NS(=O)(=O)c1ccc(Cl)cc1)c1ccccc1 ?
f

How about CN1C(=O)C2C=CC(C(O)c3ccc(-c4ccccc4)s3)N(Nc3ccccc3)C2C1=O (centres undefined) ?
t
